- Assay Method Text: Apparent permeability across apical to basolateral side in dog MDCKII-MDR1 cells at 2 uM incubated for 2.5 hrs by LC-MS/MS analysis
- Type: ADME, cell-based, Canis lupus familiaris, MDCK-MDR1
- Cond: MDCK-MDR1
Short version: Papp A→B at 2.5 h, 2 µM at least 0.6 ×10⁻⁶ cm/s is Y, less is N.

Does the reported Papp A→B at 2.5 h, 2 µM for "Cn1ncc(-c2ccc3c(=O)[nH]nc(CN)c3c2)c1-c1c(Cl)ccc(OC2CC2)c1C#N" fall at or above the 0.6 ×10⁻⁶ cm/s mark? N

* * *

Measured pIC50 by item
- Target Or System: Protein arginine N-methyltransferase 5 (Homo sapiens, UniProt O14744)
- Sequence (O14744 whole entry): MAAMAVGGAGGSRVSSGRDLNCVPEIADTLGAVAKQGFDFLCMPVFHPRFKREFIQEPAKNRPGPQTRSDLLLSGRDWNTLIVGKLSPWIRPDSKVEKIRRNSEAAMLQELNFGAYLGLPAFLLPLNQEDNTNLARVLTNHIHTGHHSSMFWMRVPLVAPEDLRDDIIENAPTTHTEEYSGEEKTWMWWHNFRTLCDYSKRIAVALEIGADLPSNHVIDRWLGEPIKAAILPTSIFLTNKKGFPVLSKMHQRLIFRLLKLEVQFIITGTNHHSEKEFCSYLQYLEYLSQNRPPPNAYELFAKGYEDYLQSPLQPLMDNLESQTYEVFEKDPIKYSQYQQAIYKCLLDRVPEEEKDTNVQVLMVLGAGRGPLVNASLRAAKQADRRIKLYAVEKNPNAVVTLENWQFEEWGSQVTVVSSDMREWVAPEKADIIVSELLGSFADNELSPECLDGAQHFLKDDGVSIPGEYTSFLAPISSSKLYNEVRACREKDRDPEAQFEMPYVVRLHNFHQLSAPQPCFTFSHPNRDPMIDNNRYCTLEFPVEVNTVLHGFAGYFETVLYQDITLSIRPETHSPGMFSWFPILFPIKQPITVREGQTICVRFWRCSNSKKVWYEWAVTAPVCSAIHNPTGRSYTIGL
- Assay Method Text: Inhibition of PRMT5 methyltransferase activity in human HCT-116 cells expressing wild type MTAP assessed as inhibition of PRMT5- mediated SDMA modification level incubated for 96 hrs by Western blot analysis
- Assay type: cell-based
Reminder that pIC50 is minus the log10 of a molar concentration.

Data point: "Cn1ncc(-c2ccc3c(=O)[nH]nc(CN)c3c2)c1-c1ccccc1C#N" ; pIC50 = 5.50

Data point: "Cn1ncc(-c2ccc3c(=O)[nH]nc(CN)c3c2)c1-c1ccc2ccccc2c1C#N" ; pIC50 = 5.92

Data point: "Cn1ncc(-c2ccc3c(=O)[nH]nc(CN)c3c2)c1-c1cc(Cl)cc(OC2CC2)c1C#N" ; pIC50 = 6.08

* * *

- Assay Method Text: Cmax in beagle dog at 10 mg/kg, po administered via gavage measured upto 24 hrs by LC-MS/MS analysis
- Format: ADME, organism-based, Canis lupus familiaris
- Design: route oral, dose 10 mg/kg, time <=24
- Cond: in vivo
Measured Property: Cmax (ng/mL)
Field format: number, assumed ng/mL, no unit text.

> print(dat)
                                smiles.text  reported
1  Cn1ncc(-c2ccc3c(=O)[nH]nc(CN)c3c2)c1-c1c(F)c(Cl)cc(OC2CC2)c1C#N      1400

We next turn to a different compound, shown below.
Data point: "Cn1ncc(-c2ccc3c(=O)[nH]nc(CN)c3c2)c1-c1c(F)cc2ccccc2c1C#N" ; Cmax = 880

* * *

- Assay Method Text: Half life in cynomolgus monkey at 2 mg/kg, iv measured upto 24 hrs by LC-MS/MS analysis
- Type: ADME, organism-based, Macaca fascicularis
- Cond: in vivo
Measured half-life by item
Kindly report the value followed by its unit.

> print(dat)
                                smiles.text  reported
1  Cn1ncc(-c2ccc3c(=O)[nH]nc(CN)c3c2)c1-c1c(F)c(Cl)cc(OC2CC2)c1C#N     6.1 h

We next turn to a different compound, shown below.
Data point: "Cn1ncc(-c2ccc3c(=O)[nH]nc(CN)c3c2)c1-c1c(F)cc2ccccc2c1C#N" ; half-life = 2.6 h

* * *

- Assay Method Text: Total clearance in beagle dog at 2 mg/kg, iv measured upto 24 hrs by LC-MS/MS analysis
- Format: ADME, organism-based, Canis lupus familiaris
- Cond: in vivo
Measured Property: clearance (mL/min/kg)
Field format: number, assumed mL/min/kg, no unit text.

Data point: "Cn1ncc(-c2ccc3c(=O)[nH]nc(CN)c3c2)c1-c1c(F)cc2ccccc2c1C#N" ; clearance = 21

Data point: "Cn1ncc(-c2ccc3c(=O)[nH]nc(CN)c3c2)c1-c1c(F)c(Cl)cc(OC2CC2)c1C#N" ; clearance = 14
